Biological target: GRIP2_6, Q9C0E4
Sequence (Q9C0E4 648-740): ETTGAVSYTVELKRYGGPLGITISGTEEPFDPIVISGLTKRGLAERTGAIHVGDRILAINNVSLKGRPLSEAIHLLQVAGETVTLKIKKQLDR
Assay: holdup assay
Design: key: below the threshold = too weak to quantify, mostly under pKd 3.1 to 4
Conditions: plain residues with an end cap or a label only (N-terminal biotin on a linker: ado-ado)
Assay Metric: pKd

> print(dat)
                                      binder  assay.metric  reported.measurement
 1                 HLRARKSEWV [GJD4, Q96KN9]           pKd   below the threshold
 2                VKPQVSESKL [ACOT8, O14734]           pKd   below the threshold
 3                IPLDGETEEL [MYOZ1, Q9NP98]           pKd   below the threshold
 4                 SARSRLSSNL [HCN2, Q9UL51]           pKd   below the threshold
 5               RRISSLESEV [GRIN2C, Q14957]           pKd   below the threshold
 6               QSARLWETSI [ADAM22, Q9P0K1]           pKd                  3.84
 7                DDPSTAETVL [ABCA7, Q8IZY2]           pKd   below the threshold
 8              SAKVRTVTSV [RASL11B, Q9BPW5]           pKd                  3.63
 9               TKGPRGPTRV [SAPCD1, Q5SSQ6]           pKd   below the threshold
10                 KKAPTNEFYA [SDC4, P31431]           pKd                  3.56
11                 LKVPPEERLI [CRB2, Q5IJ48]           pKd   below the threshold
12                EVNETDDTKM [KCNJ1, P48048]           pKd                  3.52
13                 QKNRKAQEDL [CES3, Q6UWW8]           pKd   below the threshold
14               EKKTLIGIKL [GOT1L1, Q8NHS2]           pKd   below the threshold
15               KSGKQTMLVV [TRIM29, Q14134]           pKd                  3.55
16               PLSPEQPTKL [TRIM50, Q86XT4]           pKd   below the threshold
17                SKSNFGSEPL [KIF17, Q9P2E2]           pKd   below the threshold
18               MLSKQSESAI [FLVCR1, Q9Y5Y0]           pKd   below the threshold
19                PPYRHRNTVV [ERBB4, Q15303]           pKd   below the threshold
20                SAAKVLTSMC [GHRHR, Q02643]           pKd   below the threshold
21               TASPAKETSF [SLC2A7, Q6PXP3]           pKd   below the threshold
22                EVEEFPETSV [TRPV3, Q8NET8]           pKd   below the threshold
23               SKENVQETQI [LRRC4B, Q9NT99]           pKd   below the threshold
24             RHGSCVETSL [TMEM151B, Q8IW70]           pKd   below the threshold
25                IKAIVDLTGL [TRAF2, Q12933]           pKd   below the threshold
26                RRLPGKETMA [GRIK2, Q13002]           pKd   below the threshold
27              SNAGNTATKA [NOSTRIN, Q8IVI9]           pKd   below the threshold
28                YRLAQESGLV [ABCC6, O95255]           pKd   below the threshold
29               PRAEAEDSFL [PDGFRB, P09619]           pKd   below the threshold
30  VYPNAKVELV [PDLIM4_iso2, P50479;P50479-1]           pKd   below the threshold
31               TLPRKRMSSI [GPRC6A, Q5T6X5]           pKd   below the threshold
32               NLSIEKETKL [ASNSD1, Q9NWL6]           pKd   below the threshold
